- protocol text: yeast display, Sf9 membrane polyspecificity reagent, FACS + sequencing; frameworks hold sequencing errors

{"seq string": "QVQLVESGGGLVQAGASLRLSCAPSASIFSYNAMGWYSQAPGKERELVAAIDWSGGSTYYADSVKGRFTISRDNAKNTVYLQMNSLKPEDTEVYYCNAVGVFYYSYHYHQSDYWGQGTQVTVSS", "polyreactivity (PSR sort gate)": "low polyreactivity"}
{"seq string": "QVQLVESGGGLVQAGGSLRLSCAASGFIFWLNAMGWYRQAPGKERELVAASSIGGRTNYADSVKGRFTISRDNAKNTVYLQMNSLKPDDTAVYYCNKDYRSVYKGRGFDYCGQGTQVTVSS", "polyreactivity (PSR sort gate)": "low polyreactivity"}
{"seq string": "QVQLVESGGGLVQAGGSLRLSCAASGSIFTVYAMGWYRQAPGKERELVATITGSDGRTDYADSVKGRFTISRDNAKNTVYLQMNSLKPEDTAVYYCAAQVFKWKYRQSLWFDQGYYWGQGTQVTVSS", "polyreactivity (PSR sort gate)": "low polyreactivity"}
{"seq string": "QVQLVESGGGLVQAGGSLRLSCAASGSTFGPNTMGWYRQAPGKERELVAAISRAGRTYYADSVKGRFTISRDNAKNTVYLQMNSLKPEDTAVYYCNAGRSYHWRAGGEYDYWGQGTQVTVSS", "polyreactivity (PSR sort gate)": "low polyreactivity"}

Values compiled from the nanobody polyreactivity screen of Harvey et al. (2022).
